target: Recombinant human his-tagged IGF R extracellular domain protein (human) (UniProt P08069); assay: SPR, Ab captured via anti-huIgG Fc, dissociation at pH 6
observationType: kon (M⁻¹ s⁻¹)
// units = M⁻¹ s⁻¹; emit number, no label

Before answering, review these 2 worked examples.
VRDN-02007 (antibody, V domains shown) VH: QVQLQESGPGLVKPSETLSLTCTVSGYSITGHYLWNWIRQPPGKGLEWIGYISYDGTNNYKPSLKDRVTISRDTSKNQFSLKLSSVTAADTAVYYCARYGRVFFDYWGQGTLVTVSS VL: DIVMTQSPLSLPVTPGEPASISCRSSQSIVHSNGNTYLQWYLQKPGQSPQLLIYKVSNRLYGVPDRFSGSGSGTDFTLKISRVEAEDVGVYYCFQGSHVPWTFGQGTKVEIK	184000
VRDN-02029 (antibody, V domains shown) VH: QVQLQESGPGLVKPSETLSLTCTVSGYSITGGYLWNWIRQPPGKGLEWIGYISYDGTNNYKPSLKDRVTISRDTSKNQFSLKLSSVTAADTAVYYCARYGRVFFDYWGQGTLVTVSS VL: DIVMTQSPLSLPVTPGEPASISCHSSQSIVHSNGNTYLQWYLQKPGQSPQLLIYKVSNRLYGVPDRFSGSGSGTDFTLKISRVEAEDVGVYYCFQGSHVPWTFGQGTKVEIK	85600

Moving on to another binder below.
Quick one: kon for VRDN-02026 (antibody, V domains shown) VH: QVQLQESGPGLVKPSETLSLTCTVSGYSITGGYLWNWIRQPPGKGLEWIGYISYDGTNNYKPSLKDRVTISRDTSKNQFSLKLSSVTAADTAVYYCARYGRVFHDYWGQGTLVTVSS VL: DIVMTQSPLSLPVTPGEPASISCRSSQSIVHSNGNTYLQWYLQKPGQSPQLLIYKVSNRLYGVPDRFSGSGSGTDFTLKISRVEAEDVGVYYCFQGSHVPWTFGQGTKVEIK ?
40800

All figures here come from patent US20240360227A1.
